Entries and their measured CC50 follow.
Experiment: Counterscreen MT4-LTR-Luc
Format: cell-based
Settings: human
From the text: Counterscreen cell lines included a Huh-7 hepatoma cell line containing a human cytomegalovirus major immediate-early promoter-Luc construct (Huh7-CMV-Luc) and an MT4 T-cell line containing a long terminal repeat-Luc reporter (MT4-LTR-Luc).

# annotated cases, reported CC50 shown
>  <COMPOUND>
COC(=O)N[C@H](C(=O)N1CCC[C@H]1c1ncc(-c2ccc(-c3ccc4nc([C@@H]5CCCN5C(=O)[C@@H](NC(=O)OC)[C@@H](C)OC)[nH]c4c3)cc2)[nH]1)[C@@H](C)OC

>  <VALUE_MEASURED>
> 984 nM

$$$$
>  <COMPOUND>
COC(=O)N[C@H](C(=O)N1CCC[C@H]1c1ncc(-c2ccc3cc(-c4ccc5nc([C@@H]6CCCN6C(=O)[C@@H](NC(=O)OC)[C@@H](C)O)[nH]c5c4)ccc3c2)[nH]1)[C@@H](C)O

>  <VALUE_MEASURED>
> 984 nM

$$$$
>  <COMPOUND>
CC[C@H](C)[C@H](NC(=O)OC)C(=O)N1CCC[C@H]1c1nc2ccc(-c3ccc4cc(-c5cnc([C@@H]6CCCN6C(=O)[C@@H](NC(=O)OC)C(C)C)[nH]5)ccc4c3)cc2[nH]1

>  <VALUE_MEASURED>
> 984 nM

$$$$
>  <COMPOUND>
CC[C@H](C)[C@H](NC(=O)OC)C(=O)N1CCC[C@H]1c1ncc(-c2ccc3cc(-c4ccc5nc([C@@H]6CCCN6C(=O)[C@@H](NC(=O)OC)[C@@H](C)CC)[nH]c5c4)ccc3c2)[nH]1

>  <VALUE_MEASURED>
> 984 nM

$$$$
>  <COMPOUND>
COCC[C@H](NC(=O)OC)C(=O)N1CCC[C@H]1c1ncc(-c2ccc3cc(-c4ccc5nc([C@@H]6CCCN6C(=O)[C@H](CCOC)NC(=O)OC)[nH]c5c4)ccc3c2)[nH]1

>  <VALUE_MEASURED>
> 984 nM

$$$$
>  <COMPOUND>
CC[C@H](C)[C@H](NC(=O)OC)C(=O)N1CCC[C@H]1c1nc2cc(-c3ccc4cc(-c5cnc([C@@H]6CCCN6C(=O)[C@@H](NC(=O)OC)[C@@H](C)OC)[nH]5)ccc4c3)ccc2[nH]1

>  <VALUE_MEASURED>
9680 nM

$$$$

For the compound COC(=O)N[C@H](C(=O)N1CCC[C@H]1c1ncc(-c2ccc3cc(-c4ccc5nc([C@@H]6CCCN6C(=O)[C@@H](NC(=O)OC)[C@@H](C)OC)[nH]c5c4)ccc3c2)[nH]1)[C@@H](C)OC , give its reported CC50.
> 984 nM

For the compound CC[C@H](C)[C@H](NC(=O)OC)C(=O)N1CCC[C@H]1c1ncc(-c2ccc3cc(-c4ccc5[nH]c([C@@H]6CCCN6C(=O)[C@@H](NC(=O)OC)[C@@H](C)OC)nc5c4)ccc3c2)[nH]1 , give its reported CC50.
9300 nM

For the compound COC(=O)N[C@H](C(=O)N1CCC[C@H]1c1ncc(-c2ccc3cc(-c4ccc5nc([C@@H]6CCCN6C(=O)[C@@H](NC(=O)OC)[C@@H](C)OC)[nH]c5c4)ccc3c2)[nH]1)C(C)C , give its reported CC50.
> 984 nM

For the compound COC(=O)NC(C(=O)N1CCC[C@H]1c1ncc(-c2ccc3cc(-c4ccc5nc([C@@H]6CCCN6C(=O)C(NC(=O)OC)c6ccccc6)[nH]c5c4)ccc3c2)[nH]1)c1ccccc1 (mixture of isomers) , give its reported CC50.
> 984 nM

For the compound COC(=O)N[C@H](C(=O)N1CCC[C@H]1c1ncc(-c2ccc3cc(-c4ccc5nc([C@@H]6CCCN6C(=O)[C@@H](NC(=O)OC)C6CC6)[nH]c5c4)ccc3c2)[nH]1)C1CC1 , give its reported CC50.
> 984 nM
